study system: Akt1 (Homo sapiens, UniProt P31749, S473D)
Construct: The version of Akt used in these studies lacks the pleckstrin homology (PH) domain
Sequence (P31749 118-480 S473D limits assumed, species assumed): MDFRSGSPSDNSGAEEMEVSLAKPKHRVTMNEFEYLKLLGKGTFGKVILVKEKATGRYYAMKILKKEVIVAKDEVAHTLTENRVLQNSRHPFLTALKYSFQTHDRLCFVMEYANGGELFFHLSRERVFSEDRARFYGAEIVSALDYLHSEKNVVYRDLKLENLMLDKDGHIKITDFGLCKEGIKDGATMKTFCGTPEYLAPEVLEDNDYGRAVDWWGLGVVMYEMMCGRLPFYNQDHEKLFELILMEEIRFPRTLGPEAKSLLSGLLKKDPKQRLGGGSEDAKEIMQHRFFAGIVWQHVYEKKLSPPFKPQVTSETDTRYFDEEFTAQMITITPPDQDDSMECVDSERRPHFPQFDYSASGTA
measurement description: Akt1 kinase assay, fluorescence polarization (IMAP)
Type: biochemical
condition parameters: Table 6, selectivity study; read-out: Akt Kinase Activity
Below, each of the molecules is paired with its reported pIC50 value.
// pIC50: -log10(molar conc.)

Input: Item under review: Cc1c[nH]c2ncnc(N3CCC(N)(CNc4ccc(Cl)cc4)C3)c12 (stereo not drawn) . Reported pIC50?
Output: 6.93

Input: Returns the measured pIC50 for the input molecule. Input: Cc1c[nH]c2ncnc(N3CCC(N)(CNc4ccc(Cl)cc4)CC3)c12 [BB, reference compound]
Output: 7.34

Input: Given the entry Cc1c[nH]c2ncnc(N3CCC(N)(CNc4ccccc4)C3)c12 (stereo not drawn) , report its measured pIC50.
Output: 6.79

---

Recorded IC50 by entry
study system: Akt1 (Homo sapiens, UniProt P31749, S473D)
Construct: The version of Akt used in these studies lacks the pleckstrin homology (PH) domain
measurement description: Akt1 kinase assay, fluorescence polarization (IMAP)
Type: biochemical
condition parameters: average Akt kinase activity (IC50); read-out: Avg Akt kinase, μM (50% inhibition)
Your answer should be a number followed by the unit of measure.

Field: example entries. Status: answers known.
N[C@]1(CNC(=O)c2ccc(F)cc2Cl)CCN(c2ncnc3[nH]cc(Cl)c23)C1; 0.0011 µM
Cc1cccc(F)c1C(=O)NC[C@@]1(N)CCN(c2ncnc3[nH]cc(C)c23)C1; 0.0418 µM
CCCc1c[nH]c2ncnc(N3CC[C@@](N)(CNC(=O)c4cc(C)on4)C3)c12; 0.00433 µM

Shift focus to the following entry.
Input: So what's the measured IC50 for this one? "N[C@]1(CNC(=O)c2ccccc2F)CCN(c2ncnc3[nH]cc(Cl)c23)C1"
Output: 0.00424 µM

---

study system: Akt1 (Homo sapiens, UniProt P31749, S473D)
Construct: The version of Akt used in these studies lacks the pleckstrin homology (PH) domain
measurement description: Akt1 kinase assay, fluorescence polarization (IMAP)
Assay type: biochemical
condition parameters: average Akt kinase activity (IC50); read-out: Avg Akt kinase, μM (50% inhibition)
Below, each entry is listed alongside its reported IC50.
Please report the result as a number followed by the unit.

Cc1c[nH]c2ncnc(N3CC[C@](N)(CNC(=O)c4c(F)cccc4Cl)C3)c12 [Example 116]; 0.0681 µM
N#Cc1c[nH]c2ncnc(N3CC[C@](N)(CNC(=O)c4cccc(F)c4F)C3)c12 [Example 90]; 0.0395 µM
CCc1c[nH]c2ncnc(N3CC[C@](N)(CNC(=O)c4cccc(C)c4Cl)C3)c12 [Example 118]; 0.0124 µM

Input: # query: IC50 | item Cc1c[nH]c2ncnc(N3CC[C@](N)(CNC(=O)c4cccc(Cl)c4)C3)c12 [Example 115] | system: Akt1 (Homo sapiens, UniProt P31749, S473D)
Output: 0.00998 µM

---

# IC50 per record follows
study system: Akt1 (Homo sapiens, UniProt P31749, S473D)
Construct: The version of Akt used in these studies lacks the pleckstrin homology (PH) domain
measurement description: Akt1 kinase assay, fluorescence polarization (IMAP)
Format: biochemical
condition parameters: Table 1, concentration bins; read-out: Concentration Range at which exemplary compounds of formula I inhibit Akt kinase activity

N[C@]1(CNC(=O)c2ccccc2F)CCN(c2ncnc3[nH]cc(Cl)c23)C1; 2.51 to 10 nM
Cc1c[nH]c2ncnc(N3CCC(N)(CNc4cccc(F)c4F)C3)c12 (centres unmarked); 10.1 to 100 nM
Cc1c[nH]c2ncnc(N3CC[C@](N)(CNC(=O)c4ccc(F)cc4F)C3)c12; 0.25 to 2.5 nM

Input: Please report the recorded IC50 for "N[C@]1(CNC(=O)c2c(F)cccc2F)CCN(c2ncnc3[nH]cc(Cl)c23)C1" .
Output: 2.51 to 10 nM

Input: # input compound: N#Cc1c[nH]c2ncnc(N3CCC(N)(CNc4ccc5c(c4)CNCC5)C3)c12 (centres unmarked) ; wanted: its IC50
Output: 101 to 10000 nM

Input: If you can, please state the reported IC50 value of Cc1c[nH]c2ncnc(N3CCC(N)(CNc4cccc(C(F)(F)F)c4F)C3)c12 (centres unmarked) .
Output: 0.25 to 2.5 nM

Input: Bench note: what IC50 did "Cc1cc(CNC[C@@]2(N)CCN(c3ncnc4[nH]cc(C)c34)C2)no1" show?
Output: 10.1 to 100 nM

Input: Using the record for Cc1c[nH]c2ncnc(N3CCC(N)(CN(C)C(=O)c4ccc(Cl)cc4)C3)c12 (centres unmarked) , report its IC50.
Output: 101 to 10000 nM
